Data origin, for the record: patent US8680092B2

# TESTED ON: CXCR4 (Homo sapiens)
# Construct: a human T cell strain in which CXCR4 is known to be expressed; endogenous in cells
# Sequence (P61073 whole entry): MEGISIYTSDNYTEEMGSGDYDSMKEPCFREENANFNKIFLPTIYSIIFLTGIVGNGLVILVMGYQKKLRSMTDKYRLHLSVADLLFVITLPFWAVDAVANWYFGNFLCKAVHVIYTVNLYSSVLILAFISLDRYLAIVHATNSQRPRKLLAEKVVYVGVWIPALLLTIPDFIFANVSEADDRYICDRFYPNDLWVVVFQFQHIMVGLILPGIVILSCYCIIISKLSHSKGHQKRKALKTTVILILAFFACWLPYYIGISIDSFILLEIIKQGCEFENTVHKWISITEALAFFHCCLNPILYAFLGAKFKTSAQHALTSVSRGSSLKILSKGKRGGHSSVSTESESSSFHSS
# ASSAY METHOD TEXT: Study for inhibition of binding human SDF-1 to CEM cells
# CONDITION: human T cell strain CEM cells, 125I-SDF-1, 4° C. for 60 minutes
REPORTED METRIC: IC50 (nM)
Numeric only. Scale: nM

Look at this compound and give its reported IC50. `NCCC[C@@H]1[C@@H](Nc2nccc(N3CCCCCC3)n2)CCN1C1CCCCC1` 1.6
